Reference source for all entries: ChEMBL document CHEMBL5365473

molecular target: NACHT, LRR and PYD domains-containing protein 3 (Mus musculus); assay: Inhibition of NLRP3 inflammasome in mouse […] cells assessed as inhibition of LPS/ATP-induced IL-1 beta secretion primed with LPS for 4.5 hs followed by incubation with compound for 30 mins and later stimulation with ATP for 30 mins by ELISA
Sequence (Q8R4B8 whole entry, the tested form may be a part): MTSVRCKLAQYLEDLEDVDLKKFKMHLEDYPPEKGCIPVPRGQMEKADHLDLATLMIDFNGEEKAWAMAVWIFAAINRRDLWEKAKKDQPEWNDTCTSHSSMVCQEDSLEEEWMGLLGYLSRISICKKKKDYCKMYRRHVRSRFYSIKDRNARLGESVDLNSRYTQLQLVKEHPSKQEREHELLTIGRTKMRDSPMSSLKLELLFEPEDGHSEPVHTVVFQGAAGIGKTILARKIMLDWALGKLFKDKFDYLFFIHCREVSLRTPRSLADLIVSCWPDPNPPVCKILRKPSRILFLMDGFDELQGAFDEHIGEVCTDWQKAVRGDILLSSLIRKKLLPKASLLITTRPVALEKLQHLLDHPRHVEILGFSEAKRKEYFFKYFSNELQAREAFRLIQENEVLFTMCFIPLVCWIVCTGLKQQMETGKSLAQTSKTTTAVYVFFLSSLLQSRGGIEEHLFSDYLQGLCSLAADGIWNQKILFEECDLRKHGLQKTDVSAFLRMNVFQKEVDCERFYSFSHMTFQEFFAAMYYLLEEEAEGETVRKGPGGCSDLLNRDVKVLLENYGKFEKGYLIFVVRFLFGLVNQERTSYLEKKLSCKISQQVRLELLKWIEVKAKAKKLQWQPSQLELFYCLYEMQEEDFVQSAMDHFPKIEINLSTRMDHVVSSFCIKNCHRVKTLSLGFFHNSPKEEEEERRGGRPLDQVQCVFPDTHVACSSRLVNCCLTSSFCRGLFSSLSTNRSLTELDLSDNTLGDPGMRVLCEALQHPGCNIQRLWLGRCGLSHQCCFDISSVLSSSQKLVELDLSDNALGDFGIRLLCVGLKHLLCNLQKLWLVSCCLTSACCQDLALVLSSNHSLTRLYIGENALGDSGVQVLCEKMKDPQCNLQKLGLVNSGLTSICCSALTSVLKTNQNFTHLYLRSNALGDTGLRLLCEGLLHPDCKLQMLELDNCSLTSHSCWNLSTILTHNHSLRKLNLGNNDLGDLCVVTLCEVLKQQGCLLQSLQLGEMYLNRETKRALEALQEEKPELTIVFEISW
pIC50: −log10 of the molar value.
attributeMeasured: pIC50

itemSmiles: CC(C)(C)OC(=O)N1CC=C(c2c3c(c(NC(=O)NS(=O)(=O)c4cc(C(C)(C)O)co4)c4c2CCC4)CCC3)CC1
pIC50: < 5.30
//
itemSmiles: CN(C)c1ccc(-c2c3c(c(NC(=O)NS(=O)(=O)c4cc(C(C)(C)O)co4)c4c2CCC4)CCC3)cc1
pIC50: < 5.30
//
itemSmiles: CC(C)(O)c1coc(S(=O)(=O)NC(=O)Nc2c3c(c(-c4ccc(C=O)cc4)c4c2CCC4)CCC3)c1
pIC50: < 5.30
//
itemSmiles: CN(C)c1ccc(S(=O)(=O)NC(=O)Nc2c3c(cc4c2CCC4)CCC3)cc1
pIC50: < 5.00

Look up pIC50 of CC(C)(C)OC(=O)N1C=C(c2c3c(c(NC(=O)NS(=O)(=O)c4cc(C(C)(C)O)co4)c4c2CCC4)CCC3)CCC1 and report it.
< 5.30

Write down pIC50 measured for item CC(C)(C)OC(=O)Nc1ccc(-c2c3c(c(NC(=O)NS(=O)(=O)c4cc(C(C)(C)O)co4)c4c2CCC4)CCC3)cc1
< 5.30

Return pIC50 (reported value) for this compound: CCc1cccc(CC)c1NC(=O)NS(=O)(=O)c1ccc(CN(C)C)cc1
< 5.00

Using the record for CC(C)(O)c1cc(Br)cc(S(=O)(=O)NC(=O)Nc2c3c(cc4c2CCC4)CCC3)c1 , state its measured pIC50.
< 4.70
